Source listed as PubChem BioAssay AID1361.

experiment description: blockers of mitochondrial fusion, WT vs mutant – cell-based, chemical genetic, wild-type and mutant, confirmation (AID 1361)
protocol conditions: Cell-based mitochondrial fusion phenotype, imaging, WT cells
Calls of active or inactive are those of the source. No rule for the calls is given here.
// classify into TRUE = active, FALSE = inactive

Recorded results for 3 compounds are shown here.
Req: What did the test return for "O=C(COC(=O)c1ccccn1)Nc1cccc(Cl)c1Cl" ?
Resp: FALSE

Req: What did the test return for "COc1ccccc1/C=C/C=N\N1CCN(Cc2ccccc2Cl)CC1" ?
Resp: TRUE

Req: What did the test return for "CC1CCN(C(=O)/C=C/c2ccc(C(C)(C)C)cc2)CC1" ?
Resp: FALSE

---
Req: What did the test return for "CCc1ccccc1NC(=S)N=Nc1c(O)n(C)c2ccc(S(=O)(=O)N3CCOCC3)cc12" ?
Resp: TRUE

Req: What did the test return for COc1ccc(C2C3=C(CC(C)(C)CC3=O)Oc3ncn(Cc4ccccc4)c(=N)c32)cc1 (configuration not stated) ?
Resp: TRUE

Req: What did the test return for NC(=O)c1ccc(N2CCCCC2)c(N2C(=O)C3CC=CCC3C2=O)c1 (configuration not stated) ?
Resp: FALSE

Req: What did the test return for CC1CC2=C(NC(=S)NC2c2cccc(F)c2)/C(=C/c2cccc(F)c2)C1 (configuration not stated) ?
Resp: TRUE

Req: What did the test return for "Cc1cc(C)cc(NC(=S)NCCSc2ccc(Cl)cc2)c1" ?
Resp: TRUE

Req: What did the test return for "COC(=O)CNC(=O)CNC(=O)c1nn(-c2ccc(OC)c(Cl)c2)c(=O)c2ccccc12" ?
Resp: FALSE

Req: What did the test return for "Cc1nc(C)c(-c2csc(Nc3cccc(O)c3)n2)s1" ?
Resp: FALSE

Req: What did the test return for "N#Cc1nc(-c2ccco2)oc1NCc1ccc(F)cc1" ?
Resp: FALSE

Req: What did the test return for CC(Oc1ccc(Cl)cc1Cl)C(=O)NCCCCc1ccccc1 (configuration not stated) ?
Resp: FALSE

Req: What did the test return for "CNC(=S)N/N=C/c1cccc(OCc2ccccc2F)c1" ?
Resp: FALSE

Req: What did the test return for "COc1ccc(NC(=S)NNC(=O)COc2ccc(Cl)cc2Cl)cc1" ?
Resp: TRUE

Req: What did the test return for CC/C(=C\C1CCCCC1)C(NP(=O)(c1ccccc1)c1ccccc1)c1ccccc1 (configuration not stated) ?
Resp: TRUE

* * *

experiment description: blockers of mitochondrial fusion, WT vs mutant – cell-based, chemical genetic, wild-type and mutant, confirmation (AID 1361)
protocol conditions: Cell-based mitochondrial fusion phenotype, imaging, WT cells
Active and inactive are the calls of the source. No rule for the calls is given here.
// classify into active, inactive

Recorded results for 2 compounds are shown here.
Req: What did the test return for "N#Cc1sc2nc(N3CCCCC3)c3c(c2c1N)CCCC3" ?
Resp: active

Req: What did the test return for "Cc1cccc(N2CCN(C(=O)c3ccc(Cl)c(S(=O)(=O)NCc4ccco4)c3)CC2)c1C" ?
Resp: inactive

---
Req: What did the test return for "CCCOC(=O)CN1C(=O)c2ccccc2C1=O" ?
Resp: inactive

Req: What did the test return for "CCOC(=O)c1cnc(-n2nc(C)cc2C)nc1NNc1cc(C)nc(-c2ccccc2)n1" ?
Resp: active

Req: What did the test return for CCC(C)c1ccc(NC(=S)Nc2ccc(OC)cc2C)cc1 (stereo unspecified) ?
Resp: active

Req: What did the test return for CCOC(=O)c1[nH]c2ccc(OC)cc2c1NC(=O)C(C)N1CCC2(CC1)OCCO2 (stereo unspecified) ?
Resp: inactive
